Biological target: Melanocortin receptor 5 (Mus musculus, UniProt P41149)
Sequence (P41149 whole entry): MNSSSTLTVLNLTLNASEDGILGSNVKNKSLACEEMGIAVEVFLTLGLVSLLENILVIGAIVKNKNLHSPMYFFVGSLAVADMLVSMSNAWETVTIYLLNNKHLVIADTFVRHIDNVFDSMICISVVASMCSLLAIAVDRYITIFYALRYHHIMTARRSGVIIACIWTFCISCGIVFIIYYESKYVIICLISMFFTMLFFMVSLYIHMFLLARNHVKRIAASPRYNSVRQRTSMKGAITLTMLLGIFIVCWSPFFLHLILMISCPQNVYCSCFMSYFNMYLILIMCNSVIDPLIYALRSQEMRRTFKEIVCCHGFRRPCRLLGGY
Assay: Agonistic activity against mouse MC5R
MEASUREMENT_NAME: pEC50
// pEC50 here means minus log10 of the molar concentration (mol/L)

Data request, read-out pEC50, for N=C(N)NCCCC(NC(=O)[C@@H](Cc1ccccc1)NC(=O)[C@H](Cc1cnc[nH]1)NC(=O)CCc1cccc2c1OCO2)C(N)=O (single isomer, unassigned)
4.64

* * *

Target: Melanocyte-stimulating hormone receptor (Mus musculus, UniProt Q01727)
Sequence (Q01727 whole entry): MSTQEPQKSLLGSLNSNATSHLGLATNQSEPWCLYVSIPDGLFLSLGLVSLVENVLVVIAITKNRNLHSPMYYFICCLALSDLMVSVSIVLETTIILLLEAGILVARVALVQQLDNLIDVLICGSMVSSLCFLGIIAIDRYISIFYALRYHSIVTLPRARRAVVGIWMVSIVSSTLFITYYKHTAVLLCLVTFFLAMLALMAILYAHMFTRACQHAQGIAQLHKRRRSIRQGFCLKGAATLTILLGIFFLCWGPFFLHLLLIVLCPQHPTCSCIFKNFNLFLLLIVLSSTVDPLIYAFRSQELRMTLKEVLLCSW
Assay: Agonistic activity against mouse MC1R
MEASUREMENT_NAME: pEC50
Answer as the number alone; pEC50 is minus log10 of concentration in mol/L.

Item N=C(N)NCCCC(NC(=O)[C@@H](Cc1ccccc1)NC(=O)[C@H](Cc1cnc[nH]1)NC(=O)CCc1cccc2c1OCO2)C(N)=O (single isomer, unassigned) has what recorded pEC50?
5.14
